Tested on: SOS1 and KRAS G12D (Homo sapiens (Human), UniProt Q07889)
Sequence (Q07889 564-1049, stated change not applied): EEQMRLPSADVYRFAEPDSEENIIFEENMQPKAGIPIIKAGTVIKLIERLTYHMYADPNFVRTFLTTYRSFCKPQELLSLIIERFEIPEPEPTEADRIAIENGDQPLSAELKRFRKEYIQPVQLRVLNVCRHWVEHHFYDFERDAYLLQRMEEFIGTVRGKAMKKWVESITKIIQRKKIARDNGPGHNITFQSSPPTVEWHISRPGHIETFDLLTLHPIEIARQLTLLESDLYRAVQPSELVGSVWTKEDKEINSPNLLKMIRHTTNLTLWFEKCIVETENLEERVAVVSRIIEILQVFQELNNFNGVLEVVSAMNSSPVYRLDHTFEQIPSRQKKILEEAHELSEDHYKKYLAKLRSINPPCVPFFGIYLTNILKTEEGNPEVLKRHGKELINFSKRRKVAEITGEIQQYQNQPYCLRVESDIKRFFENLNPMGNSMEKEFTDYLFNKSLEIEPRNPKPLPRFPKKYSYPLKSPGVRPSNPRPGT
Method description: KRAS::SOS1 AlphaScreen Binding Assay
Setup conditions: SOS1 (564-1049), KRAS G12D (1-169), GDP
pIC50: −log10 of the molar value.
Value type: pIC50

Quick one: pIC50 of C=C(C)c1c(=O)n(N2CCOCC2)cc2c(N[C@H](C)c3cccc(C(F)F)c3F)nc(C)nc12 [Example 56] ?
≥ 7.82

Quick one: pIC50 of Cc1nc(N[C@H](C)c2cccc(C(F)F)c2F)c2cn(N3CCOCC3)c(=O)c(-c3ccc(S(C)(=O)=O)cc3)c2n1 [Example 43] ?
≥ 7.82

Quick one: pIC50 of Cc1nc(N[C@H](C)c2cccc(C(F)(F)F)c2F)c2cn(N3CCOCC3)c(=O)c(F)c2n1 [Example 31] ?
≥ 7.82

Quick one: pIC50 of Cc1nc(NC(C)C2CC2)c2cn(N3CCOCC3)c(=O)cc2n1 (stereo not shown) [Example 23] ?
< 6.00

###

Tested on: NCI-H358
Method description: Cell proliferation assay, 3D, CellTiter-Glo 3D
Type: cell-based, human
Setup conditions: Homo sapiens, 72 h; NCI-H358 (KRAS G12C), 3D ultra-low attachment, 3 days; read-out: anit-prolif. H358 IC50
Value type: IC50

Quick one: IC50 of Cc1nc(N[C@H](C)c2cccc(C(F)F)c2F)c2cn(N3CCOCC3)c(=O)c(-c3cnn(C)c3)c2n1 [Example 70] ?
100 to 500 nM

Quick one: IC50 of Cc1nc(N[C@H](C)c2cccc(C(F)F)c2F)c2cn(N3CCCOCC3)c(=O)cc2n1 [Example 6] ?
≤ 100 nM

Quick one: IC50 of COC1CCN(n2cc3c(N[C@H](C)c4cccc(C(F)F)c4F)nc(C)nc3cc2=O)CC1 [Example 7] ?
100 to 500 nM

Quick one: IC50 of Cc1nc(N[C@H](C)c2cccc(C(F)F)c2F)c2cn(N3CCOCC3)c(=O)c(-c3cncnc3)c2n1 [Example 52] ?
≤ 100 nM

Quick one: IC50 of Cc1nc(N[C@H](C)c2cccc(C(F)F)c2F)c2cn(N3CC4(COC4)C3)c(=O)cc2n1 [Example 9] ?
100 to 500 nM

Quick one: IC50 of Cc1nc(N[C@H](C)c2cccc(C(F)F)c2F)c2cn(N3CCOCC3)c(=O)c(-c3cccnc3)c2n1 [Example 45] ?
≤ 100 nM

Quick one: IC50 of Cc1nc(N[C@H](C)c2cccc(C(F)F)c2C)c2cn(N3CCOCC3)c(=O)cc2n1 [Example 21] ?
≤ 100 nM

Quick one: IC50 of Cc1nc(N[C@H](C)c2cccc(C(F)(F)F)c2F)c2cn(N3CCOCC3)c(=O)c(F)c2n1 [Example 31] ?
≤ 100 nM

Quick one: IC50 of Cc1nc(N[C@H](C)c2cccc(C(F)F)c2F)c2cn(N3CCOCC3)c(=O)c(-c3ccccn3)c2n1 [Example 74] ?
100 to 500 nM

Quick one: IC50 of Cc1nc(N[C@H](C)c2cccc(C(F)F)c2F)c2cn(N3CCOCC3)c(=O)c(C3=CCN(S(C)(=O)=O)CC3)c2n1 [Example 55] ?
100 to 500 nM

Quick one: IC50 of Cc1nc(N[C@H](C)c2cccc(C(F)F)c2F)c2cn(N3CCOCC3)c(=O)c(-c3ccc4nncn4c3)c2n1 [Example 72] ?
100 to 500 nM

Quick one: IC50 of Cc1nc(N[C@H](C)c2cccc(C(F)F)c2F)c2cn(N3CCNCC3)c(=O)cc2n1 [Example 10] ?
> 1000 nM

Quick one: IC50 of Cc1nc(N[C@H](C)c2cccc(C(F)F)c2F)c2cn(N3C[C@@H](C)O[C@@H](C)C3)c(=O)cc2n1 [Example 5] ?
100 to 500 nM

Quick one: IC50 of CNCc1ccccc1-c1csc([C@@H](C)Nc2nc(C)nc3cc(=O)n(N4CCOCC4)cc23)c1 [Example 77] ?
100 to 500 nM

Quick one: IC50 of Cc1nc(N[C@H](C)c2cccc(C(F)F)c2F)c2cn(N3CCS(=O)(=O)CC3)c(=O)cc2n1 [Example 36] ?
100 to 500 nM

###

I'd be grateful if you could share measured pIC50 for these entries.
Tested on: SOS1 and KRAS G12D (Homo sapiens (Human))
Method description: KRAS::SOS1 AlphaScreen Binding Assay
Setup conditions: SOS1 (564-1049), KRAS G12D (1-169), GDP
pIC50: −log10 of the molar value.

Quick one: pIC50 of Cc1nc(N[C@@H](C)c2cccc(C(F)F)c2C)c2cn(N3CCOCC3)c(=O)cc2n1 ?
6.00 to 6.82

Quick one: pIC50 of Cc1nc(N[C@H](C)c2cccc(C(F)F)c2F)c2cn(N3CCOCC3)c(=O)c(-c3cn(CC(F)F)cn3)c2n1 ?
≥ 7.82

Quick one: pIC50 of Cc1nc(N[C@H](C)c2cccc(C(F)F)c2F)c2cn(N3CCOCC3)c(=O)c(-c3cncnc3)c2n1 ?
≥ 7.82

Quick one: pIC50 of Cc1nc(N[C@H](C)c2cccc(C(F)F)c2F)c2cn(N3CCOCC3)c(=O)c(-c3ccc(F)nc3)c2n1 ?
≥ 7.82

Quick one: pIC50 of Cc1nc(N[C@H](C)c2cccc(C(F)F)c2F)c2cn(N3CCOCC3)c(=O)c(-c3ccc4nncn4c3)c2n1 ?
≥ 7.82

Quick one: pIC50 of Cc1nc(N[C@H](C)c2cccc(C(F)F)c2F)c2cn(N3CCOCC3)c(=O)c(-c3ccc4nccn4c3)c2n1 ?
≥ 7.82

Quick one: pIC50 of Cc1nc(N[C@H](C)c2cccc(C(F)F)c2F)c2cn(N3CCOCC3)c(=O)c(-c3ccc(C(F)(F)F)nc3)c2n1 ?
6.82 to 7.82

###

Method description: Human liver microsomal stability
Format: in vitro ADME
Setup conditions: human liver microsomes; read-out: Human liver microsomal stability, T1/2
Value type: half-life

Quick one: half-life of Cc1nc(N[C@H](C)c2cccc(C(F)F)c2F)c2cn(N3CCOCC3)c(=O)cc2n1 [Example 1] ?
1.4 h

Quick one: half-life of Cc1nc(N[C@H](C)c2cccc(C(F)F)c2F)c2cn(N3CCOCC3)c(=O)c(-c3ccc(S(C)(=O)=O)cc3)c2n1 [Example 43] ?
> 16.7 h

Quick one: half-life of Cc1nc(N[C@H](C)c2cccc(C(F)F)c2F)c2cn(C3CCOCC3)c(=O)cc2n1 [Example I-18, reference compound] ?
0.05 h

Quick one: half-life of Cc1nc(N[C@H](C)c2cccc(C(F)(F)F)c2C)c2cn(N3CCOCC3)c(=O)c(F)c2n1 [Example 30] ?
3.17 h

Quick one: half-life of Cc1nc(N[C@H](C)c2cccc(C(F)F)c2F)c2cn(N3CCOCC3)c(=O)c(-c3cnn(CCO)c3)c2n1 [Example 53] ?
0.733 h

Quick one: half-life of Cc1nc(N[C@H](C)c2cccc(C(F)F)c2F)c2cn(N3CCOCC3)c(=O)c(F)c2n1 [Example 29] ?
2.33 h

Quick one: half-life of Cc1nc(N[C@H](C)c2cccc(C(F)F)c2F)c2cn(N3CCOCC3)c(=O)c(-c3ccc(S(C)(=O)=O)nc3)c2n1 [Example 61] ?
> 16.7 h

Quick one: half-life of Cc1nc(N[C@H](C)c2cccc(C(F)(F)F)c2C)c2cn(N3CCOCC3)c(=O)cc2n1 [Example 17] ?
1.83 h

###

Tested on: SOS1 and KRAS G12D (Homo sapiens (Human), UniProt Q07889)
Method description: KRAS::SOS1 AlphaScreen Binding Assay
Setup conditions: SOS1 (564-1049), KRAS G12D (1-169), GDP
I'd be grateful if you could share measured IC50 for these entries.

Quick one: IC50 of Cc1nc(N[C@H](C)c2cccc(C(F)F)c2F)c2cn(N3CCOCC3)c(=O)c(C3=CCS(=O)(=O)CC3)c2n1 [Example 85] ?
≤ 15 nM

Quick one: IC50 of Cc1nc(N[C@H](C)c2cccc(C(F)F)c2F)c2cn(N3CCN(C(=O)OC(C)(C)C)CC3)c(=O)cc2n1 [Example 4] ?
15 to 150 nM

Quick one: IC50 of Cc1nc(N[C@H](C)c2cccc(C(F)F)c2F)c2cn(N3CCC(O)CC3)c(=O)cc2n1 [Example 37] ?
≤ 15 nM

Quick one: IC50 of Cc1nc(N[C@H](C)c2cccc(C(F)F)c2F)c2cn(N3CCOCC3)c(=O)c(-c3ccnc(C#N)c3)c2n1 [Example 68] ?
≤ 15 nM

Quick one: IC50 of Cc1nc(N[C@H](C)c2cccc(C(F)F)c2F)c2cn(N3CCOCC3)c(=O)c(-c3cccnc3)c2n1 [Example 45] ?
≤ 15 nM

Quick one: IC50 of Cc1nc(N[C@H](C)c2cccc(C(F)F)c2F)c2cn(N3CCC(F)(F)CC3)c(=O)cc2n1 [Example 3] ?
≤ 15 nM

Quick one: IC50 of Cc1nc(NC(C)c2cc(C(F)F)cc(C(F)F)c2)c2cn(N3CCOCC3)c(=O)cc2n1 (stereo not drawn) [Example 28] ?
150 to 1000 nM

Quick one: IC50 of Cc1nc(N[C@H](C)c2cccc(C(F)F)c2F)c2cn(N3CCOCC3)c(=O)c(-c3ccc(=O)[nH]c3)c2n1 [Example 49] ?
≤ 15 nM

Quick one: IC50 of Cc1nc(N[C@H](C)c2cccc(C(F)F)c2F)c2cn(N3CCCCC3)c(=O)cc2n1 [Example 2] ?
≤ 15 nM

Quick one: IC50 of Cc1nc(N[C@H](C)c2cccc(C(F)F)c2F)c2cn(N3CCOCC3)c(=O)c(C3=CCN(S(C)(=O)=O)CC3)c2n1 [Example 55] ?
≤ 15 nM

Quick one: IC50 of Cc1nc(NCc2ccc3cc[nH]c3c2)c2cn(N3CCOCC3)c(=O)cc2n1 [Example 27] ?
> 1000 nM

Quick one: IC50 of Cc1nc(N[C@H](C)c2cccc(C(F)F)c2F)c2cn(N3CCOCC3)c(=O)c(-c3ccc(N)nc3)c2n1 [Example 48] ?
≤ 15 nM

Quick one: IC50 of Cc1nc(N[C@H](C)c2cccc(C(F)(F)F)c2C)c2cn(N3CCOCC3)c(=O)cc2n1 [Example 17] ?
≤ 15 nM

Quick one: IC50 of Cc1nc(N[C@H](C)c2cccc(C(F)F)c2F)c2cn(N3CCOCC3)c(=O)c(-c3cnn(CCO)c3)c2n1 [Example 53] ?
≤ 15 nM

Quick one: IC50 of Cc1nc(N[C@H](C)c2cccc(C(F)F)c2F)c2cn(N3CCOCC3)c(=O)c(-c3cnc(C#N)c(F)c3)c2n1 [Example 67] ?
15 to 150 nM

Provenance of the data: patent US20240051956A1
